- measured_target: UniProt:P48039
- measurement_description: Intrinsic activity of Melatonin receptor type 1A evaluated on [35S]GTP-gamma-S, binding in Chinese hamster ovarian (CHO) cells
- Assay type: functional, cell-based
measurement_type: EC50

1) COc1ccc2oc(Cc3cccc(C(F)(F)F)c3)c(CCNC(C)=O)c2c1 ... > 10 µM

====

Protein target, amino acids: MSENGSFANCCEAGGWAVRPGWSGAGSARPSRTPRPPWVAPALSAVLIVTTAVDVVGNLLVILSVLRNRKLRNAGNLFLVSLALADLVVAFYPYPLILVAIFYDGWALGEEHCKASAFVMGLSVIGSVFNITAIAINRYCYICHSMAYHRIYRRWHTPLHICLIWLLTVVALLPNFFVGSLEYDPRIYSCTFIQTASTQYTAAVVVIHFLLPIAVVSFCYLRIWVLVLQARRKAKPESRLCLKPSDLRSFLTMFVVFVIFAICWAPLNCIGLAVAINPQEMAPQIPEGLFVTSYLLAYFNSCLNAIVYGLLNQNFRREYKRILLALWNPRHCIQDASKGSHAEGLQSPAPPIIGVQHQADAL
pKi: −log10 of the molar value.
measurement_type: pKi

1) COc1ccc2oc(-c3ccccc3)c(CCNC(C)=O)c2c1 ... 10.70
2) COc1ccc2oc(Cc3cccc(Cl)c3)c(CCNC(C)=O)c2c1 ... 9.66
3) C=CCC(=O)NCCc1c(-c2ccccc2)oc2ccc(OC)cc12 ... 10.70
4) CCCCCOc1ccc2oc(Cc3ccccc3)c(CCNC(C)=O)c2c1 ... 8.02
5) COc1ccc2oc(Cc3cccc(F)c3)c(CCNC(C)=O)c2c1 ... 9.64
6) COc1ccc2oc(Cc3ccccc3)c(CCNC(C)=O)c2c1 ... 10.30
7) C/C=C/C(=O)NCCc1c(-c2ccccc2)oc2ccc(OC)cc12 ... 9.68
8) COc1ccc2oc(-c3ccccc3)c(CCNC(=O)c3ccco3)c2c1 ... 8.77
9) CNC(=O)NCCc1c(-c2ccccc2)oc2ccc(OC)cc12 ... 10.40
10) CC(=O)NCCc1c(Cc2ccccc2)oc2ccc(O)cc12 ... 7.10
11) C=CC(=O)NCCc1c(Cc2cccc(OC)c2)oc2ccc(OC)cc12 ... 8.56

====

- measured_target: Melatonin receptor type 1A (Homo sapiens)
- Sequence (P48039 whole entry): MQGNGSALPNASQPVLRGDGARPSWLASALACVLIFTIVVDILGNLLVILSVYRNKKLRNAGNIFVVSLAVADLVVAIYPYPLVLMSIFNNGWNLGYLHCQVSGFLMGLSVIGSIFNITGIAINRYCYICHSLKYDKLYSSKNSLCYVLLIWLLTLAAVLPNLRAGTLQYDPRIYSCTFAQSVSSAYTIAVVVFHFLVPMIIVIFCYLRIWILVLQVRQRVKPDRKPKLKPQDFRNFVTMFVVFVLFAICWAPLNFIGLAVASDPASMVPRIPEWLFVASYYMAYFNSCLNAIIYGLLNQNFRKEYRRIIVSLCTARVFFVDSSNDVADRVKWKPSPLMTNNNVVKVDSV
- measurement_description: Antagonist potency determined against 30 nM melatonin for Melatonin receptor type 1A
- Type: functional
# Kb values compiled below
measurement_type: Kb (nM)

1) CCc1ccc2oc(Cc3cccc(OC)c3)c(CCNC(C)=O)c2c1 ... 266
2) CC(=O)NCCc1c(Cc2ccccc2)oc2ccccc12 ... 27
3) COc1ccc2oc(Cc3cccc(C(F)(F)F)c3)c(CCNC(C)=O)c2c1 ... 89
4) C=CCC(=O)NCCc1c(Cc2cccc(OC)c2)oc2ccc(OC)cc12 ... 57
5) COc1ccc(Cc2oc3ccc(OC)cc3c2CCNC(C)=O)cc1 ... 35
6) COc1ccc2oc(Cc3ccccc3OC)c(CCNC(C)=O)c2c1 ... 26
7) COc1cccc(Cc2oc3ccc(OC)cc3c2CCNC(C)=O)c1 ... 26
8) COc1ccc2oc(CC3CCCCC3)c(CCNC(C)=O)c2c1 ... 242

====

- measured_target: Melatonin receptor type 1B (Homo sapiens, UniProt P49286)
Exam item: assign MET to entries whose Ki is below 2 nM and NOT MET to entries at or above 2 nM. Note that a value of exactly 2 nM receives NOT MET.

1) CCCC(=O)NCCc1c(Cc2ccccc2)oc2ccc(OC)cc12 ... MET
2) COc1ccc2oc(CC3CCCCC3)c(CCNC(C)=O)c2c1 ... NOT MET
3) C=CC(=O)NCCc1c(-c2ccccc2)oc2ccc(OC)cc12 ... MET
4) COc1ccc2oc(CCCc3ccccc3)c(CCNC(C)=O)c2c1 ... MET
5) COc1ccc2oc(Cc3cccnc3)c(CCNC(C)=O)c2c1 ... NOT MET
6) COc1ccc(Cc2oc3ccc(OC)cc3c2CCNC(C)=O)cc1 ... MET

Provenance of the data: ChEMBL document CHEMBL1135482
